- target: HIV-1 reverse transcriptase (Human immunodeficiency virus 1, UniProt P03366;P03366 P03366:600-1159,P03366:600-1039)
- run description: inhibition; Ki', RNA-dependent DNA polymerase activity
- condition description: tags: expressed in E. coli, purified per Davies et al. 1991; label: 5'-32P
pKi: −log10 of the molar value.

- binder: "RT6 (ssDNA) DNA: ATCCGCCTGATTAGCGATACTCAGGCGTTAGGGAAGGGCGTCGAAAGCAGGGTGGGACTTGAGCAAAATCACCTGCAGGGG"
  pKi: 7.52
